This collection of values is drawn from PubChem BioAssay (EPA / NIEHS).

Read-out: serum amyloid A (SAA), SAA1 (gene 6288)
Test Details: BSK_CASM3C_SAA: BioMAP Diversity Plus: CASM3C Assay for serum amyloid A (SAA) Biomarker Activity (AID 2283049);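 further: SAA protein level quantified by ELISA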
Condition Context: primary human coronary artery smooth muscle cells; actives raise or lower the signal
Activity calls are given as the source filed them. How the source made its calls: active means hit-call score of the fitted dose curve at least 0.9, where 1 is the maximum; inactive means score below 0.9.
Write down one outcome, taken from active, inactive

Here's what some known entries look like.
1) CCCCCCCCCCCC
inactive
2) N=C(N)c1ccc(OCCCCCOc2ccc(C(=N)N)cc2)cc1
inactive
3) CC(C)(C)c1ccc(O)c(O)c1
inactive

Asked: Hi, do you know how C=CC(C)(CCC=C(C)C)OC(C)=O (stereo not given) came out in this test?
Given back: active

Asked: And what about the compound CN(CCO)S(=O)(=O)C(F)(F)C(F)(F)C(F)(F)C(F)(F)C(F)(F)C(F)(F)C(F)(F)C(F)(F)F ?
Given back: inactive
